# target of assay: Epidermal Growth Factor Receptor (EGFR) (Homo sapiens (Human), UniProt P00533)
# Sequence (P00533 25-1210): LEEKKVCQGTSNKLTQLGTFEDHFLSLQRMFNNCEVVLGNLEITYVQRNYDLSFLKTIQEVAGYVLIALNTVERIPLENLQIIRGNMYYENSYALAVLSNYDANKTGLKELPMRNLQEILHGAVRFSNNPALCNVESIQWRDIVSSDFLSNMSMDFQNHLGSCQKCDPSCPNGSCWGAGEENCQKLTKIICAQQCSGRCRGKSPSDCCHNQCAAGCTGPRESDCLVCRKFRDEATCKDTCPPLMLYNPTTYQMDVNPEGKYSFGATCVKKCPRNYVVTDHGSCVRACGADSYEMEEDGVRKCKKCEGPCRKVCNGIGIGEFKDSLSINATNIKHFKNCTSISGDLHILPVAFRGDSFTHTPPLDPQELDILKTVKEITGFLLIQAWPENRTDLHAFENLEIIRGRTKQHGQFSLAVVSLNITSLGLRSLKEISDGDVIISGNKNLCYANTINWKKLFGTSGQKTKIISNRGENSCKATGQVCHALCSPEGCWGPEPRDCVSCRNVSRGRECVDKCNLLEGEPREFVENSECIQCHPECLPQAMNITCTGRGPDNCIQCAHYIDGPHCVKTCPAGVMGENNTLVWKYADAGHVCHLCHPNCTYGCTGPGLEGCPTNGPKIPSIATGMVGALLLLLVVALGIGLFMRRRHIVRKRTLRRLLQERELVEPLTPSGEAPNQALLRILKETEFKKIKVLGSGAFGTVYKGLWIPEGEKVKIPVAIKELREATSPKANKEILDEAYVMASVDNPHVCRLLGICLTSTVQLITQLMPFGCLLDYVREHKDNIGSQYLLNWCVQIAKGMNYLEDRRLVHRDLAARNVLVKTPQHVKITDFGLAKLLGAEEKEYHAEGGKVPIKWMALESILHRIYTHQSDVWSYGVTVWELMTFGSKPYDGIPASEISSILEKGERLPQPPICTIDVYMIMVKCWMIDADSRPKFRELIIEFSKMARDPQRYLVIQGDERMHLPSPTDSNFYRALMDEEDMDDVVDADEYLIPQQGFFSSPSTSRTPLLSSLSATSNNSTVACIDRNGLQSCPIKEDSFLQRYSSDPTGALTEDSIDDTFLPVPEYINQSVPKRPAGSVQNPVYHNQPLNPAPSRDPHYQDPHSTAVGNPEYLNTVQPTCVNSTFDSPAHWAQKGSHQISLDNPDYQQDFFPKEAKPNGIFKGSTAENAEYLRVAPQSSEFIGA
# assay protocol: EGFR kinase assay (TR-FRET)
# Assay type: biochemical
# test settings: values given in μM; read-out: EGFR kinase inhibition IC50
Some compounds, each annotated with its measured IC50.
readout name: IC50

{"columns": ["compound", "reported result"],
 "data": [
  ["COc1cc2nc(C)nc(NC(C)c3cccc4scnc34)c2cc1OC (centres unmarked) [Example 14]", "> 20 µM"],
  ["COc1cc2nc(C)nc(NC(C)c3cc(Br)cs3)c2cc1OC (centres unmarked) [Example 264]", "> 20 µM"],
  ["COc1cc2nc(C)nc(NC(C)c3ccc(-c4cccc(C(N)=O)c4)s3)c2cc1OC (centres unmarked) [Example 241]", "> 20 µM"],
  ["COc1cc2nc(C)nc(NC(C)c3ccc(-c4ccc(F)cc4CNCc4nccn4C)s3)c2cc1OC (centres unmarked) [Example 304]", "> 20 µM"],
  ["COc1cc2nc(C)nc(NC(C)c3ccc(Br)s3)c2cc1OC (centres unmarked) [Example 209]", "> 20 µM"]
]}

* * *

# target of assay: human SOS1 (nucleotide exchange of K-Ras^G12C) (Homo sapiens, UniProt Q07889)
# assay protocol: Biochemical assay 2: K-Ras^G12C activation assay by hSOS1 at high GTP concentration (HTRF)
# test settings: high GTP; read-out: Assay 2 (KRAS-Activation by SOS high GTP) activity expressed as IC50
pIC50: −log10 of the molar value. Where a name gives a salt, the structure may show the parent alone.

{"columns": ["compound", "pIC50"],
 "data": [
  ["COc1cc2nc(C)nc(NC(C)c3ccc(-c4ccccc4CNCC(=O)N(C)C)s3)c2cc1OC (centres unmarked)", 6.92],
  ["COc1cc2nc(C)nc(N[C@@H](C)c3ccc(-c4ccc(-c5nnc(C)o5)cc4)s3)c2cc1OC (racemic)", 4.77],
  ["COc1cc2nc(C)nc(N[C@H](C)c3ccc(S(C)(=O)=O)cc3)c2cc1OC", 4.78],
  ["COc1cc2nc(C)nc(NC(C)c3ccc(-c4ccccc4)o3)c2cc1OC (centres unmarked) [Example 213]", 5.20],
  ["COc1cc2nc(C)nc(NC(C)c3ccc(-c4ccc(F)cc4CNC(=O)c4cc[nH]n4)s3)c2cc1OC (centres unmarked)", 5.87],
  ["COc1cc2nc(C)nc(NC(C)c3ccc(-c4ccc(CN)cc4)s3)c2cc1OC (centres unmarked)", 5.77],
  ["C=C(C)c1ccc([C@@H](C)Nc2nc(C)nc3cc(OC)c(OC)cc23)cc1", 5.86],
  ["COc1cc2nc(C)nc(NC(C)c3ccc(C4=CCOCC4)s3)c2cc1OC (centres unmarked)", 5.33],
  ["COc1cc2nc(C)nc(NC(C)c3ccc(-c4ccccc4CNCC(=O)Nc4ccccc4)s3)c2cc1OC (centres unmarked)", 5.93],
  ["COc1cc2nc(C)nc(NC(C)c3ccc(-c4ccc(F)cc4CNC(=O)[C@@H]4CCCN4)s3)c2cc1OC (some centres unmarked)", 7.06],
  ["C/C=C(\\C)c1cccc([C@@H](C)Nc2nc(C)nc3cc(OC)c(OC)cc23)c1", 5.92],
  ["COc1cc2nc(C)nc(N[C@@H](C)c3ccc(-c4cccc(C(=O)N(C)C)c4)s3)c2cc1OC (racemic)", 5.23],
  ["CCCCOc1cc2c(N[C@H](C)c3cccc(-c4cn[nH]c4)c3)nc(C)nc2cc1OC", 6.13],
  ["COc1cc2nc(C)nc(NC(C)c3ccc(-c4ccccc4CNCC(=O)N4CCc5ccccc5C4)s3)c2cc1OC (centres unmarked)", 6.08],
  ["COC(=O)c1cc2c(C(C)Nc3nc(C)nc4cc(OC)c(OC)cc34)cccc2s1 (centres unmarked)", 6.94],
  ["COc1cc2nc(C)nc(NC(C)c3ccc4c(c3)CCO4)c2cc1OC (centres unmarked)", 5.91],
  ["COc1cc2nc(C)nc(N[C@H](C)c3ccc(F)cc3)c2cc1OC", 6.24],
  ["COc1cc2nc(C)nc(N[C@H](C)c3cccc(-c4cn[nH]c4)c3)c2cc1OC(C)C", 6.38],
  ["COc1cc2nc(C)nc(NC(C)c3ccc(-c4ccccc4CN4CCC(C(N)=O)CC4)s3)c2cc1OC (centres unmarked)", 6.61],
  ["COc1cc2nc(C)nc(NC(C)c3ccc(-c4ccccc4CNCC(N)=O)s3)c2cc1OC (centres unmarked)", 6.77],
  ["COc1cc2nc(C)nc(NC(C)c3ccc(-c4ccccc4CN4CCNCC4)s3)c2cc1OC (centres unmarked) [Example 305, hydrochloride]", 7.26],
  ["COc1cc2nc(C)nc(NC(C)c3ccc4c(c3)OCO4)c2cc1OC (centres unmarked)", 5.73],
  ["COc1cc2nc(C)nc(NC(C)c3ccc(-c4ccccc4CN(C)CC(F)(F)F)s3)c2cc1OC (centres unmarked)", 5.20],
  ["COc1cc2nc(C)nc(N[C@H](C)c3cccc(-c4cn[nH]c4)c3)c2cc1OCC1COC1", 6.29],
  ["COc1cc2nc(C)nc(N[C@H](C)c3cccc(-c4ccccc4C(=O)N(C)C)c3)c2cc1OC", 5.61],
  ["COc1cc2nc(C)nc(N[C@H](C)c3cccc(-c4cccc(S(N)(=O)=O)c4)c3)c2cc1OC", 6.14],
  ["COc1ncc(-c2cccc([C@@H](C)Nc3nc(C)nc4cc(OC)c(OC)cc34)c2)cn1", 5.78],
  ["COCCOc1cc2c(N[C@H](C)c3cccc(-c4cn[nH]c4)c3)nc(C)nc2cc1OC", 6.09],
  ["COc1cc2nc(C)nc(NC(C)c3cccc4nn(C)cc34)c2cc1OC (centres unmarked)", 5.86],
  ["COc1cc2nc(C)nc(NC(C)c3ccc(-c4ccccc4CO)s3)c2cc1OC (centres unmarked)", 6.40],
  ["COc1cc2nc(C)nc(N[C@H](C)c3cccc(C#N)c3)c2cc1OC", 6.23],
  ["COc1cc2nc(C)nc(NC(C)c3cccs3)c2cc1OC (centres unmarked) [Example 207]", 5.64]
]}
